system: preformed amyloid fibrils from TGFBIp611-633 G623R peptide (Homo sapiens, UniProt Q15582, G623R)
Construct: The 23-amino acid long peptide (TGFBIp 611-633 c.623 G>R) from the 4th FAS1 domain; purchased Synpeptide Co Ltd, Shanghai, China; host or cells: synthetic peptide
Sequence (Q15582 611-633 G623R limits assumed): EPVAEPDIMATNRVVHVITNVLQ
test_details: ThT fluorescence assay, dissolution of preformed amyloid fibrils
Type: biochemical
conditions_used: 200 mM, 72 h, preformed fibrils; read-out: % Inhibition (mean ± SD) n = 3, dissolution of amyloid fibrils, ThT fluorescence
Procedure: The TGFBIp^611-633 G623R peptides were incubated in PBS for 24 hours, allowed to form uniform amyloid fibrils. The TGFBIp^611-633 G623R peptide solution was then subjected to Circular Dichroism spectroscopy to confirm the formation of amyloid fibrils. The preformed amyloid fibril solution incubated with PBS was used as a control. The peptide samples collected at the various time points above were treated with 30 μM ThT in PBS buffer at pH 5.5 in a 96-well microplate for ThT fluorescence assay. […]
// values below are reported inhibition at 200000 µM
Form entry: value (%) — number only.

{"compound": "CNCC(=O)O [Sarcosine, sarcosine]", "unit_string": "%", "inhibition at 200000 µM": 53}
{"compound": "NCCS(=O)(=O)O [Taurine, taurine]", "unit_string": "%", "inhibition at 200000 µM": 61}

Lab note: measured inhibition at 200000 µM of C[N+](C)(C)CC(=O)O [Betaine, betaine] was 37

Lab note: measured inhibition at 200000 µM of OC[C@H]1O[C@H](OC[C@H]2O[C@H](O[C@]3(CO)O[C@H](CO)[C@@H](O)[C@@H]3O)[C@H](O)[C@@H](O)[C@@H]2O)[C@H](O)[C@@H](O)[C@H]1O [Raffinose, raffinose] was 64

====

system: preformed amyloid fibrils from TGFBIp611-633 G623R peptide (Homo sapiens, UniProt Q15582, G623R)
Construct: The 23-amino acid long peptide (TGFBIp 611-633 c.623 G>R) from the 4th FAS1 domain; purchased Synpeptide Co Ltd, Shanghai, China; host or cells: synthetic peptide
test_details: ThT fluorescence assay, dissolution of preformed amyloid fibrils
Type: biochemical
conditions_used: 200 mM, 24 h, preformed fibrils; read-out: % Inhibition (mean ± SD) n = 3, dissolution of amyloid fibrils, ThT fluorescence
// values below are reported inhibition at 200000 µM

Solved cases below.
{"compound_structure": "C[N+](C)(C)CC(=O)O", "inhibition at 200000 µM": "4%"}
{"compound_structure": "OC[C@H]1O[C@H](OC[C@H]2O[C@H](O[C@]3(CO)O[C@H](CO)[C@@H](O)[C@@H]3O)[C@H](O)[C@@H](O)[C@@H]2O)[C@H](O)[C@@H](O)[C@H]1O", "inhibition at 200000 µM": "14%"}
{"compound_structure": "NCCS(=O)(=O)O", "inhibition at 200000 µM": "23%"}

Now for a further compound.
Lab note: measured inhibition at 200000 µM of CNCC(=O)O was 24%

====

system: TGFBIp611-633 G623R peptide (Homo sapiens, UniProt Q15582, G623R)
Construct: The 23-amino acid long peptide (TGFBIp 611-633 c.623 G>R) from the 4th FAS1 domain; purchased Synpeptide Co Ltd, Shanghai, China; host or cells: synthetic peptide
test_details: ThT fluorescence assay, inhibition of amyloid fibrillation
Assay type: biochemical
conditions_used: 200 mM, 48 h; read-out: % Inhibition (mean ± SD) n = 3, ThT fluorescence
Description: The 23-amino acid long peptide (TGFBIp 611-633 c.623 G>R) from the 4th FAS1 domain of TGFBIp with the substitution, G623→R ([…]) that rapidly formed amyloid fibrils was used in this study. […] The peptide samples collected at various time points above were treated with 30 μM Thioflavin T (ThT) (Sigma-Aldrich Inc., MO, USA) in PBS buffer at pH 5.5 in a 96-well microplate (Greiner Bio-One, Frickenhausen, Germany) for ThT fluorescence assay. […]
recorded_metric: inhibition at 200000 µM (%)
Form entry: value (%) — number only.

Solved cases below.
{"compound_structure": "CNCC(=O)O", "obs_value": 32}
{"compound_structure": "NCCS(=O)(=O)O", "obs_value": 34}
{"compound_structure": "C[N+](C)(C)CC(=O)O", "obs_value": 26}

Now for a further molecule.
The value of inhibition at 200000 µM recorded for OC[C@H]1O[C@H](OC[C@H]2O[C@H](O[C@]3(CO)O[C@H](CO)[C@@H](O)[C@@H]3O)[C@H](O)[C@@H](O)[C@@H]2O)[C@H](O)[C@@H](O)[C@H]1O when tested on TGFBIp611-633 G623R peptide (Homo sapiens, UniProt Q15582, G623R) reads 32

====

// values below are reported inhibition at 200000 µM
system: preformed amyloid fibrils from TGFBIp611-633 G623R peptide (Homo sapiens, UniProt Q15582, G623R)
Construct: The 23-amino acid long peptide (TGFBIp 611-633 c.623 G>R) from the 4th FAS1 domain; purchased Synpeptide Co Ltd, Shanghai, China; host or cells: synthetic peptide
test_details: Circular Dichroism assay (θ[218]), disaggregation of preformed amyloid fibrils
Format: biochemical
conditions_used: 200 mM, 24 h, preformed fibrils; read-out: % Inhibition (mean ± SD) n = 3, θ[218] of preformed amyloid fibrils, circular dichroism
Form entry: value (%) — number only.

Lab note: measured inhibition at 200000 µM of NCCS(=O)(=O)O was 13

====

// values below are reported inhibition at 200000 µM
system: TGFBIp611-633 G623R peptide (Homo sapiens, UniProt Q15582, G623R)
Construct: The 23-amino acid long peptide (TGFBIp 611-633 c.623 G>R) from the 4th FAS1 domain; purchased Synpeptide Co Ltd, Shanghai, China; host or cells: synthetic peptide
test_details: Circular Dichroism assay (θ[218]), inhibition of amyloid fibrillation
Assay type: biochemical
conditions_used: 200 mM, 24 h; read-out: % Inhibition (mean ± SD) n = 3, θ[218] circular dichroism
Form entry: value (%) — number only.

{"compound": "OC[C@H]1O[C@H](OC[C@H]2O[C@H](O[C@]3(CO)O[C@H](CO)[C@@H](O)[C@@H]3O)[C@H](O)[C@@H](O)[C@@H]2O)[C@H](O)[C@@H](O)[C@H]1O [Raffinose, raffinose]", "system": "TGFBIp611-633 G623R peptide (Homo sapiens, UniProt Q15582, G623R)", "inhibition at 200000 µM [%]": 19}

Lab note: measured inhibition at 200000 µM of C[N+](C)(C)CC(=O)O [Betaine, betaine] was 8

====

// values below are reported inhibition at 200000 µM
system: preformed amyloid fibrils from TGFBIp611-633 G623R peptide (Homo sapiens, UniProt Q15582, G623R)
Construct: The 23-amino acid long peptide (TGFBIp 611-633 c.623 G>R) from the 4th FAS1 domain; purchased Synpeptide Co Ltd, Shanghai, China; host or cells: synthetic peptide
test_details: Circular Dichroism assay (θ[218]), disaggregation of preformed amyloid fibrils
Format: biochemical
conditions_used: 200 mM, 24 h, preformed fibrils; read-out: % Inhibition (mean ± SD) n = 3, θ[218] of preformed amyloid fibrils, circular dichroism
Form entry: value (%) — number only.

Solved cases below.
{"compound_structure": "C[N+](C)(C)CC(=O)O", "inhibition at 200000 µM / %": 6}
{"compound_structure": "CNCC(=O)O", "inhibition at 200000 µM / %": 12}

Now for a further compound.
Lab note: measured inhibition at 200000 µM of OC[C@H]1O[C@H](OC[C@H]2O[C@H](O[C@]3(CO)O[C@H](CO)[C@@H](O)[C@@H]3O)[C@H](O)[C@@H](O)[C@@H]2O)[C@H](O)[C@@H](O)[C@H]1O was 7
